Tested on: CD2F1 mice, L1210 leukemia ip, survival T/C
Measurement protocol: NCI In Vivo Anticancer Drug Screen. Data for tumor model L1210 Leukemia (intraperitoneal) in CD2F1 (CDF1) mice
Condition label: endpoint: mean survival time; dose: 2.5 mg/kg/injection; schedule: Q01DX009 (ip); vehicle: saline with Tween-80; higher = longer survival
Inconclusive results and toxic doses are left out.
Quantity: T/C

CCC[CH2][Sn]1([CH2]CCC)[O]OC2(CCCCC2)[O]1
105 % of control

With CD2F1 mice, L1210 leukemia ip, survival T/C as the test system, CC(=O)OC1C2(CC3N4C(=O)C5(CO)SSC4(CC31O)C(=O)N5C)OC(C)C(C)(C)C2=O (stereo not given) showed T/C of 98 % of control

Let me check: `C[C@H](C[P+](c1ccccc1)(c1ccccc1)c1ccccc1)[C@](OC(=O)c1ccccc1)(C(=O)c1ccccc1)c1ccccc1` , system CD2F1 mice, L1210 leukemia ip, survival T/C, measured T/C is 98 % of control

Measured on CD2F1 mice, L1210 leukemia ip, survival T/C, `Cc1ccc([NH-])c([NH-])c1.[Cl][Pt+2][Cl]` has a documented T/C of 151 % of control

Record `CCC1(C)CC(=O)NC(=O)C1` has CD2F1 mice, L1210 leukemia ip, survival T/C T/C equal to 97 % of control
